# MEASUREMENT_DESCRIPTION: AUC (0 to t) in Sprague-Dawley rat at 2 mg/kg, iv measured for 5 to 1440 mins by LC-MS/MS analysis
# Assay type: ADME, organism-based
# MEASUREMENT_CONDITIONS: in vivo, time 5-1440 min
ASSAY_ENDPOINT: AUC(0-t) (ng·h/mL)
Express your answer in ng·h/mL, writing the number without its unit.

Item: COc1ccc(-c2c(C#N)c(=O)n(Cc3ccccc3)c3c(N[C@H](C)c4ccccn4)cccc23)cc1 | AUC(0-t): 399

----------
# MEASUREMENT_DESCRIPTION: Half life in Sprague-Dawley rat at 2 mg/kg, iv measured for 5 to 1440 mins by LC-MS/MS analysis
# Assay type: ADME, organism-based
# MEASUREMENT_CONDITIONS: in vivo, time 5-1440 min
ASSAY_ENDPOINT: half-life
Your answer should be a number followed by the unit of measure.

Item: COc1ccc(-c2c(C#N)c(=O)n(Cc3ccccc3)c3c(N[C@H](C)c4ccccn4)cccc23)cc1 | half-life: 2.25 h
